- System: OVCAR-8 ovarian
- test_details: NCI-60 one-dose screen, 48 h (100 = growth as untreated, 0 = no growth, -100 = all killed)
- condition: 10 µM unless noted
This is part of a sample that, as a whole, favours compounds with a hit. Of some 83,000 tested, about 20% had one in any assay.
Field: label. Allowed values: MET (growth < 70%) or NOT MET (growth >= 70%).

molecule	target_or_system	assigned_class
Nc1ncnc(N)c1NC(=O)c1ccc(OCc2ccccc2)cc1	OVCAR-8 ovarian	NOT MET
COc1ccc(/C=c2\sc3n(c2=O)NC2C(N=3)N(C)C(=O)N2C)cc1 (stereo unspecified)	OVCAR-8 ovarian	NOT MET
O=CCCCC(O)C=O (stereo unspecified)	OVCAR-8 ovarian	NOT MET
CNCCNc1nc2ccccc2c2c(=O)c3cccc(OC)c3sc12	OVCAR-8 ovarian	MET

Query string: Check if growth falls below 70% for `COc1ccc(/C=C2\SC(=Nc3ccccc3)NC2=O)cc1` .
Result string: MET

Query string: Is it true that growth reported for `O=C(/C=C/c1cccc(Cl)c1)OCc1ccc2cc1OCC#C/C=C\C#CCO2` is less than 70%?
Result string: NOT MET

###

- System: SN12C renal
- test_details: NCI-60 one-dose screen, 48 h
- condition: 10 µM unless noted
- Protocol: Growth inhibition of the SN12C human tumor cell line is measured as a screen for anti-cancer activity. Cells are grown in 96 well plates and exposed to the test compound for 48 hours. Compounds are tested at a single concentration, which is 10^-5 M for most compounds. The reported endpoint is percent growth (GI% or GIPRCNT), where numbers from 0 - 100% represent growth inhibition, and numbers from -100% - 0 represent cell death. For example, a value of 40 represents 60% growth inhibition. […]
Compounds without any hit were thinned out: in the full panel of roughly 83,000, 20% have a hit. Active and inactive are the calls of the source. Rule for the calls: active = growth percent below 10; inactive = the rest.
Choose the fitting class; nothing outside 1 for active, 0 for inactive is accepted.

These recorded examples may help you get a feel for the data.
molecule	target_or_system	assigned_class
CCCCCCCCCCCCCCn1cc(C2=C(c3coc4ccc(OC)cc34)C(=O)NC2=O)c2ccccc21	SN12C renal	0
COc1cc(C(=O)Nc2ccc(-c3nc4ccccc4[nH]3)cc2)cc(OC)c1OC	SN12C renal	0

Query string: Give the logged outcome of this assay for the following molecule: `O=C1/C(=C/c2ccc(O)cc2)COc2ccc(O)c(O)c21`
Result string: 1

Query string: Each molecule tested received a call. Report the one for CN1C(=O)N(C)C2(c3ccccc3)n3c(s/c(=C\c4ccccc4)c3=O)=NNC12c1ccccc1 (stereo unspecified) .
Result string: 0

Query string: # lookup: test call for COc1cc2c(cc1OC)C(=O)C(CC1CCN(C(=O)Nc3ccc(C)cc3)CC1)C2 (stereo unspecified)
Result string: 0

Query string: Would you mind telling me which call this test gave `Cc1ccc(OCCCCCCNCCO)c(C)c1` ?
Result string: 1

Query string: Hello, I am checking results. What call was entered for CCN1C(=O)N(CC)C2C1NC(=S)N2/N=C/C=C/c1ccccc1OC (stereo unspecified) ?
Result string: 0

Query string: Write down the call the test reported for this molecule. Item: `O=C(Nc1ccc(Cl)cc1F)c1cc(I)ccc1O`
Result string: 0

Query string: # outcome recorded in this test, key = `O=C(Nc1ccc(N2CCNCC2)cc1)c1[nH]ncc1Nc1ncnc2sc3c(c12)CCC3`
Result string: 1

Query string: Please indicate how the test categorized `CCOC(=O)c1c2c(c(C)n1Cc1ccc(OC)cc1)-c1oncc1CC2` .
Result string: 0

Query string: Per the records of this test, what outcome belongs to `Nc1ccc(C2c3ccccc3Oc3ccccc32)cc1` ?
Result string: 0
